EC50 values, listed per item
- Tested on: hepatitis C replicon
- protocol notes: hepatitis C replicon EC50
- Assay type: cell-based
- measurement context: Hepatitis C virus; Table 2; hepatitis C replicon; read-out: EC50

smiles code: CC1(S(=O)(=O)NC(=O)[C@@]23C[C@H]2/C=C\CCCCC[C@H](Nc2ccc(Cl)cc2)C(=O)N2C[C@H](Oc4nc5ccccc5s4)C[C@H]2C(=O)N3)CC1
EC50: 75 to 500 nM
--
smiles code: CC(C)(C)c1csc(N[C@H]2CCCCC/C=C\[C@@H]3C[C@@]3(C(=O)O)NC(=O)[C@@H]3C[C@@H](Oc4nc5ccccc5s4)CN3C2=O)n1
EC50: > 500 nM
--
smiles code: COc1ccc2c(O[C@@H]3C[C@H]4C(=O)N[C@]5(C(=O)O)C[C@H]5/C=C\CCCCC[C@H](Nc5cc(F)cc(C(F)(F)F)c5)C(=O)N4C3)cc(-c3ccccc3)nc2c1
EC50: 75 to 500 nM

Form field EC50, entry "CC1(S(=O)(=O)NC(=O)[C@@]23C[C@H]2/C=C\CCCCC[C@H](Nc2cccc(C(F)(F)F)c2)C(=O)N2C[C@H](Oc4nccc5ccccc45)C[C@H]2C(=O)N3)CC1" : < 10 nM

// EC50 lookup, compound = "COc1ccc2c(O[C@@H]3C[C@H]4C(=O)N[C@]5(C(=O)NS(=O)(=O)C6(C)CC6)C[C@H]5/C=C\CCCCC[C@H](Nc5ccc(C(F)(F)F)cc5)C(=O)N4C3)cc(-c3nc(C(C)C)cs3)nc2c1C" , result: < 10 nM

###

- Test system: hepatitis C replicon
- protocol notes: hepatitis C replicon EC50
- Assay type: cell-based
- measurement context: Hepatitis C virus; Table 2; hepatitis C replicon; read-out: EC50
endpoint label: EC50

smiles code: CC1(S(=O)(=O)NC(=O)[C@@]23C[C@H]2/C=C\CCCCC[C@H](Nc2ccc(F)c(C(F)(F)F)c2)C(=O)N2C[C@H](Oc4nccc5ccccc45)C[C@H]2C(=O)N3)CC1
endpoint label: EC50
reading: < 10 nM
//
smiles code: CC1(S(=O)(=O)NC(=O)[C@@]23C[C@H]2/C=C\CCCCC[C@H](Nc2cc(C(F)(F)F)cc(C(F)(F)F)c2)C(=O)N2C[C@H](Oc4nc5ccccc5s4)C[C@H]2C(=O)N3)CC1
endpoint label: EC50
reading: 75 to 500 nM

Value sought: EC50, system hepatitis C replicon, item "CCn1c(O[C@@H]2C[C@H]3C(=O)N[C@]4(C(=O)NS(=O)(=O)C5(C)CC5)C[C@H]4/C=C\CCCCC[C@H](Nc4ccccc4)C(=O)N3C2)nc2ccccc21" . Result: < 10 nM

###

- System: hepatitis C replicon
- protocol notes: hepatitis C replicon EC50
- Type: cell-based
- measurement context: Hepatitis C virus; Table 3; hepatitis C replicon; read-out: EC50
pEC50: −log10 of the molar value.
endpoint label: pEC50

smiles code: CC(C)(C)OC(=O)N[C@H]1CCCCC/C=C\[C@@H]2C[C@@]2(C(=O)O)NC(=O)[C@@H]2C[C@@H](Oc3nc4ccccc4s3)CN2C1=O
pEC50: < 7.00

Reported pEC50 for "CC(=O)Nc1ccc(N[C@H]2CCCCC/C=C\[C@@H]3C[C@@]3(C(=O)NS(=O)(=O)C3(C)CC3)NC(=O)[C@@H]3C[C@@H](OC(=O)N4Cc5cccc(F)c5C4)CN3C2=O)cc1" was 7.00 to 8.00

So for "CC(C)(C)OC(=O)N[C@H]1CCCCC/C=C\[C@@H]2C[C@@]2(C(=O)NS(=O)(=O)C2CC2)NC(=O)[C@@H]2C[C@@H](Oc3nc4ccc(Br)cc4s3)CN2C1=O" , the logged pEC50 turned out to be > 8.00

Data point: "Cc1cc(F)cc(N[C@H]2CCCCC/C=C\[C@@H]3C[C@@]3(C(=O)NS(=O)(=O)C3(C)CC3)NC(=O)[C@@H]3C[C@@H](OC(=O)N4Cc5cccc(F)c5C4)CN3C2=O)c1" ; pEC50 = > 8.00

// pEC50 lookup, compound = "CC(=O)Nc1cccc(N[C@H]2CCCCC/C=C\[C@@H]3C[C@@]3(C(=O)NS(=O)(=O)C3(C)CC3)NC(=O)[C@@H]3C[C@@H](OC(=O)N4Cc5cccc(F)c5C4)CN3C2=O)c1" , result: 7.00 to 8.00
